# System: ACHN renal
# experiment.summary: NCI-60 one-dose screen, 48 h
# condition.details: 10 µM unless noted
Compounds without any hit were thinned out: in the full panel of roughly 83,000, 20% have a hit. Calls of active or inactive are those of the source. How the source made its calls: active means growth percent below 10; inactive means the rest.
Thanks in advance; please answer with one of these: YES = active, NO = inactive

IN: Recorded call for `COc1ccc(-c2cn[nH]c2-c2cc(OC)c3c(c2)OCCO3)cc1` ?
OUT: NO

IN: Recorded call for `Cc1ccc(Nc2ncnc3c2sc2ncccc23)cc1` ?
OUT: NO

IN: Recorded call for CCCCC(N)(C(=O)O)C1CCCC1 (stereo unspecified) ?
OUT: NO

IN: Recorded call for `CCC(=O)Oc1ccc2c(c1)CC[C@@H]1[C@@H]2CC[C@]2(C)C[C@H](OC(=O)CC)C[C@@H]12` ?
OUT: NO

IN: Recorded call for CC1=NN2C(=NC3=C(CCC/C3=C\c3ccc(Cl)cc3)C2c2ccc(Cl)cc2)S1 (stereo unspecified) ?
OUT: NO

IN: Recorded call for `CC(C)(C)OC(=O)N1C/C(=C\c2cccs2)C(=O)/C(=C/c2cccs2)C1` ?
OUT: NO

IN: Recorded call for `Nc1c(C(=O)Nc2cccc(Cl)c2Cl)sc2nc3c(cc12)C(=O)CCC3` ?
OUT: NO

IN: Recorded call for C/C1=C\CCC2(C)OC2CC2CCC(C)(O)C(CC1)C2(C)C (stereo unspecified) ?
OUT: NO

IN: Recorded call for Cc1c(C2=NNC(c3ccc4c(c3)OCO4)C2)[n+]([O-])c2ccccc2[n+]1[O-] (stereo unspecified) ?
OUT: NO

IN: Recorded call for COc1cc(C2C=C(C)N=C3SC(C)=NN32)cc(OC)c1OC (stereo unspecified) ?
OUT: NO

IN: Recorded call for `O=C(CNC1CCCCC1)Nc1ccc(-c2nc3ccccc3s2)cc1` ?
OUT: NO

IN: Recorded call for CCN1C(=S)N(CC)C2Nn3c(s/c(=C4\C(=O)N(C)c5ccccc54)c3=O)=NC21 (stereo unspecified) ?
OUT: NO

IN: Recorded call for CCC(C)NCC(=O)O (stereo unspecified) ?
OUT: NO

IN: Recorded call for `O=C1C2=C(C(=O)c3c(O)ccc(O)c31)N(c1cccnc1)Cc1ccccc1O2` ?
OUT: YES

IN: Recorded call for `CCCCCCCCCCC/C=C\C[C@H](O)C/C=C1/C(=O)C=C[C@@H]1C/C=C\CCCC(=O)OC` ?
OUT: YES

IN: Recorded call for `O=C(Nc1cccc(Cl)c1)c1cc([N+](=O)[O-])ccc1O` ?
OUT: NO

IN: Recorded call for N#CC1=C(N)OC2=C(C(=O)CCC2)C1c1ccco1 (stereo unspecified) ?
OUT: NO

IN: Recorded call for `COc1cc(NC(=O)c2cc3ccccc3nc2Nc2ccc(F)cc2)cc(OC)c1OC` ?
OUT: NO

IN: Recorded call for `CN1CCN(c2ccc3cc(-c4nc5ccccc5[nH]4)c(=O)oc3c2)CC1` ?
OUT: NO

IN: Recorded call for `CN(C)c1ccc(-c2ccc(-c3ccc(C(=N)N)cn3)o2)cc1` ?
OUT: YES

IN: Recorded call for `Cc1ccc(S(=O)(=O)N2CCC(C(=O)Nc3ccc(F)cc3F)CC2)cc1` ?
OUT: NO

IN: Recorded call for `CC/C=C\C/C=C\C[C@H](O)C/C=C1/C(=O)C=C[C@H]1C/C=C\CCC(=O)OC` ?
OUT: NO

IN: Recorded call for `O=c1oc2cc(OS(=O)(=O)c3ccccc3)c(Cl)cc2c2c1CCCCCC2` ?
OUT: NO

IN: Recorded call for `COc1ccc(-c2nc3sccn3c2-c2ccnc(NCCCNS(=O)(=O)c3ccc4ccccc4c3)n2)cc1` ?
OUT: NO

IN: Recorded call for CCCCn1c(=O)c(C2CNC(=O)c3ccccc3N2)cc2ccccc21 (stereo unspecified) ?
OUT: NO

IN: Recorded call for `Cc1cc(C(=O)O)c(N)c(C)n1` ?
OUT: NO

IN: Recorded call for `C=C1C(=O)O[C@H]2[C@H]1CC/C(COC(=O)NCCc1cccc(OC)c1)=C\CC[C@@]1(C)O[C@@H]21` ?
OUT: YES

IN: Recorded call for `CSc1ccccc1C#C/C=C\C#Cc1ccccc1N1CCCC1=O` ?
OUT: NO

IN: Recorded call for `COc1ccc(C(=O)N2CCN(C(=O)c3cc(OC)c(OC)c(OC)c3)CC2)cc1OCCCCOc1cc2c(cc1OC)C(=O)N1CCC[C@H]1C=N2` ?
OUT: NO

IN: Recorded call for CCC(c1cccc(Br)c1)C(C(=O)O)c1ccc(OC)cc1 (stereo unspecified) ?
OUT: NO

IN: Recorded call for `c1cncc(CNc2ccccc2-c2nnc(Nc3ccc4c(c3)OCCO4)o2)c1` ?
OUT: NO

IN: Recorded call for `Nc1c(C(=O)Nc2cccc(C(F)(F)F)c2)sc2nc3c(cc12)CCCCCC3` ?
OUT: YES

IN: Recorded call for `CCN(CC)S(=O)(=O)c1ccc2[nH]c(=O)cc(C(=O)Nc3ccc(OC)cc3OC)c2c1` ?
OUT: NO

IN: Recorded call for `Cc1cc2c(C(C)C)c(O)c(O)c(C=NCCCCCCC(=O)O)c2c(O)c1-c1c(C)cc2c(C(C)C)c(O)c(O)c(C=NCCCCCCC(=O)O)c2c1O` ?
OUT: NO

IN: Recorded call for O=C(O)C(Cc1ccccc1)N1C(=O)/C(=C/C(Cl)=C/c2ccc([N+](=O)[O-])cc2)SC1=S (stereo unspecified) ?
OUT: NO

IN: Recorded call for `COc1cc(-c2csc(NC(=O)c3cc(C(F)(F)F)cc(C(F)(F)F)c3)n2)cc(OC)c1OC` ?
OUT: NO
